Origin of values: patent US20090318491A1

# assay-target: α4β2* nAChR (Rattus norvegicus, UniProt P09483+P12390)
# Construct: Frozen rat brains were thawed slowly before the preparation of the P2 rat brain membrane fraction
# Sequence (P12390 25-500): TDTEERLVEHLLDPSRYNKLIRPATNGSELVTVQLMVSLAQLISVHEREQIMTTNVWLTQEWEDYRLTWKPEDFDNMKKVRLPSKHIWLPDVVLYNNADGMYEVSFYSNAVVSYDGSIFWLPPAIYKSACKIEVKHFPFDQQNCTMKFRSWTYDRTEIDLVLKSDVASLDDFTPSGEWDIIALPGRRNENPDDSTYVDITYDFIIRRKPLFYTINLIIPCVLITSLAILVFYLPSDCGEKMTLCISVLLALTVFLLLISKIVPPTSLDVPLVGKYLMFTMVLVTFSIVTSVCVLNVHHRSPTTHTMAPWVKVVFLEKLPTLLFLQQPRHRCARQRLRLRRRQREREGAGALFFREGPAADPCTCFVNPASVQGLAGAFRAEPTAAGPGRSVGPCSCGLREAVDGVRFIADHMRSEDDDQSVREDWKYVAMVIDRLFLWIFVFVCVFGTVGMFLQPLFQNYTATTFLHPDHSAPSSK
# Sequence (P09483 31-630): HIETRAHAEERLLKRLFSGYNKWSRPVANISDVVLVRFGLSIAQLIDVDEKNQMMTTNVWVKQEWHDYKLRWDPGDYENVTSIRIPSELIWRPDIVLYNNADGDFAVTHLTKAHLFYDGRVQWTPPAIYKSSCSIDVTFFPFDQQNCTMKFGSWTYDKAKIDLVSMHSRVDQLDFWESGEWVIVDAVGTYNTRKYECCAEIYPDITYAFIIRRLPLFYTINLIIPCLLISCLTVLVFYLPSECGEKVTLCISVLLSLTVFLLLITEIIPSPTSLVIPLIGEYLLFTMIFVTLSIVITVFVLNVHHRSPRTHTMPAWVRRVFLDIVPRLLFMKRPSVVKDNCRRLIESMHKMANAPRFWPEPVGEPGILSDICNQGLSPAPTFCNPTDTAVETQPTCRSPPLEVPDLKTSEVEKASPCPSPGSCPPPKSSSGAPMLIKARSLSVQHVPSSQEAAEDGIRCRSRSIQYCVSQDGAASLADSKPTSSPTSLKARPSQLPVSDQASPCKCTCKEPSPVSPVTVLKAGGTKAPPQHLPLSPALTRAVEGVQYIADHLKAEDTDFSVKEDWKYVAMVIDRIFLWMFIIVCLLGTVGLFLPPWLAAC
# assay-comment: biochemical
# Procedure: Preparation of Rat Brains Frozen rat brains were thawed slowly before the preparation of the P2 rat brain membrane fraction (30-60 min on ice, afterwards at room temperature). […] The buffer volume added was calculated on the basis of the wet weight in a ratio 1:2. […] A dilution row of 6-9 concentrations of the test compound was prepared. […] The scintillation vials were filled with scintillation cocktail (2 mL) and the radioactivity was measured using a liquid scintillation counter. […]
pKi: −log10 of the molar value.
Recorded pKi, one value per entry.

compound: O=c1ccc(-c2cccc(OC(F)(F)F)c2)c2n1C[C@@H]1CNC[C@H]2C1 [107e, 5-(3′-Trifluoromethoxy-phenyl)-cytisine]
pKi: 7.64
--
compound: O=c1ccc(-c2cccc(F)c2)c2n1C[C@@H]1CNC[C@H]2C1 [109e, 5-(3′-Fluoro-phenyl)-cytisine]
pKi: 6.52
--
compound: O=c1c(-c2ccc3[nH]ccc3c2)ccc2n1C[C@@H]1CNC[C@H]2C1 [117e, 3-(1H-Indol-5′-yl)-cytisine]
pKi: 6.07
--
compound: Cc1cccc(-c2ccc(=O)n3c2[C@H]2CNC[C@H](C2)C3)c1 [105e, 5-(3′-Methyl-phenyl)-cytisine]
pKi: 7.62
--
compound: Cn1cc(-c2ccc(=O)n3c2[C@H]2CNC[C@H](C2)C3)cn1 [126e, 5-(1-Methyl-1H-pyrazol-4′-yl)-cytisine]
pKi: 8.66
--
compound: Cn1cc(-c2ccc3n(c2=O)CC2CNCC3C2)cn1 (stereo not drawn) [122e, 3-(1-Methyl-1H-pyrazol-4′-yl)-cytisine]
pKi: 9.75
--
compound: O=c1ccc(-c2cccc(C(F)(F)F)c2)c2n1C[C@@H]1CNC[C@H]2C1 [106e, 5-(3′-Trifluoromethyl-phenyl)-cytisine]
pKi: 7.26
--
compound: O=c1ccc(-c2cccnc2)c2n1C[C@@H]1CNC[C@H]2C1 [125e, 5-(Pyridin-3′-yl)-cytisine]
pKi: 7.96
--
compound: O=c1cccc2n1C[C@@H]1CNC[C@H]2C1 [compound 27]
pKi: 9.91
--
compound: O=c1c(-c2cccc(OC(F)(F)F)c2)ccc2n1C[C@@H]1CNC[C@H]2C1 [97e, 3-(3′-Trifluoromethoxy-phenyl)-cytisine]
pKi: 7.17
--
compound: O=c1c(-c2cccc(F)c2)ccc2n1C[C@@H]1CNC[C@H]2C1 [99e, 3-(3′-Fluoro-phenyl)-cytisine]
pKi: 8.24
--
compound: O=c1c(-c2cccc(C(F)(F)F)c2)ccc2n1C[C@@H]1CNC[C@H]2C1 [96e, 3-(3′-Trifluoromethyl-phenyl)-cytisine]
pKi: 8.08
--
compound: O=c1ccc(-c2cccc(Cl)c2)c2n1C[C@@H]1CNC[C@H]2C1 [108e, 5-(3′-Chloro-phenyl)-cytisine]
pKi: 6.77
--
compound: O=c1ccc(-c2ccc3[nH]ccc3c2)c2n1C[C@@H]1CNC[C@H]2C1 [123e, (1H-Indol-5′-yl)-cytisine]
pKi: 7.69
--
compound: O=c1c(-c2cccnc2)cc(Br)c2n1C[C@@H]1CNC[C@H]2C1 [129e, 5-Bromo-3-(pyridin-3′-yl)-cytisine]
pKi: 7.04

----------
Recorded pKi, one value per entry.
# assay-target: α3β4* nAChR (Bos taurus, UniProt Q07263+Q8SPU6)
# Construct: 100 μL of the calf adrenal membrane protein fraction (60-70 μg)
# Sequence (Q07263 22-495): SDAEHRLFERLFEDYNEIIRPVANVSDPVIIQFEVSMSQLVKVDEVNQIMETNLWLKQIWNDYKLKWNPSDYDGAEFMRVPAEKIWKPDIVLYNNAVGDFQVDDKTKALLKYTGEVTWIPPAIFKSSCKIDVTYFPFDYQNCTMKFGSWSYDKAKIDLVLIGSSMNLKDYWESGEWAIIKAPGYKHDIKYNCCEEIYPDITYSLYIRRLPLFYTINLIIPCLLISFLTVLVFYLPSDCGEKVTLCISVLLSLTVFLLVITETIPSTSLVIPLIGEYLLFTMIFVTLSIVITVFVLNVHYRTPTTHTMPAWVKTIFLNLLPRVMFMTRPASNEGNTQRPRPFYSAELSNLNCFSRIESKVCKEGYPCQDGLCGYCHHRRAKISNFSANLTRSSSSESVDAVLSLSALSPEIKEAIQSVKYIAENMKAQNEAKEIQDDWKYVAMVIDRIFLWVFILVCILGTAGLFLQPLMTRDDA
# Sequence (Q8SPU6 20-496): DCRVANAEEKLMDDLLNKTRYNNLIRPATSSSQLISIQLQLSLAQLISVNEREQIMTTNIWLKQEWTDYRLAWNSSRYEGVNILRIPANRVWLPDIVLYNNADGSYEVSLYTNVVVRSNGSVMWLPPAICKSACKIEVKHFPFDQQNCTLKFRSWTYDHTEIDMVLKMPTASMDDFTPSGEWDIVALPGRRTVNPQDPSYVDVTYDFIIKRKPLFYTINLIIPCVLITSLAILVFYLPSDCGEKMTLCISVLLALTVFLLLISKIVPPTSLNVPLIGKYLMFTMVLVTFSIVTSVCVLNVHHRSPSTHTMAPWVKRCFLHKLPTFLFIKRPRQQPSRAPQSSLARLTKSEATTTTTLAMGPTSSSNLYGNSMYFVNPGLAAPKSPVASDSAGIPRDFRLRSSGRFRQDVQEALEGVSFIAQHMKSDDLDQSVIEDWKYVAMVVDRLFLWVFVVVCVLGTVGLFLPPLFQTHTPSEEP
# assay-comment: biochemical
pKi: −log10 of the molar value.
readout-label: pKi

compound: O=c1ccc(-c2ccc3c(c2)OCO3)c2n1C[C@@H]1CNC[C@H]2C1 [124e, 5-(3′,4′-Methylenedioxy-phenyl)-cytisine]
readout-label: pKi
result: < 5.00
--
compound: O=c1c(-c2cccnc2)cc(Br)c2n1C[C@@H]1CNC[C@H]2C1 [129e, 5-Bromo-3-(pyridin-3′-yl)-cytisine]
readout-label: pKi
result: < 5.70
--
compound: O=c1c(-c2ccccc2)cc(Br)c2n1C[C@@H]1CNC[C@H]2C1 [128e, 5-Bromo-3-phenyl-cytisine]
readout-label: pKi
result: < 5.30
--
compound: O=c1c(-c2cccc([N+](=O)[O-])c2)ccc2n1C[C@@H]1CNC[C@H]2C1 [94e, 3-(3′-Nitro-phenyl)-cytisine]
readout-label: pKi
result: < 5.70
--
compound: O=c1c(-c2ccc3c(c2)OCO3)ccc2n1C[C@@H]1CNC[C@H]2C1 [118e, 3-(3′,4′-Methylenedioxy-phenyl)-cytisine]
readout-label: pKi
result: < 5.00
--
compound: O=c1c(-c2cccc(-c3ccccc3)c2)ccc2n1C[C@@H]1CNC[C@H]2C1 [100e, 3-(Biphenyl-3′-yl)-cytisine]
readout-label: pKi
result: < 5.00

----------
# assay-target: α4β2* nAChR (Rattus norvegicus, UniProt P09483+P12390)
# Construct: Frozen rat brains were thawed slowly before the preparation of the P2 rat brain membrane fraction
# assay-comment: biochemical
pKi: −log10 of the molar value.
Recorded pKi, one value per entry.
readout-label: pKi

compound: O=c1c(-c2ccccc2)cc(Br)c2n1C[C@@H]1CNC[C@H]2C1 [128e, 5-Bromo-3-phenyl-cytisine]
result: 6.88
//
compound: O=c1ccc(-c2ccc3c(c2)OCO3)c2n1C[C@@H]1CNC[C@H]2C1 [124e, 5-(3′,4′-Methylenedioxy-phenyl)-cytisine]
result: 7.02
//
compound: O=c1c(-c2cccc3cccnc23)ccc2n1C[C@@H]1CNC[C@H]2C1 [121e, 3-Quinolin-8′-yl-cytisine]
result: 7.02
